ASSAY EXPLANATION: HT1080 cell viability loss – fluorescence readout (AID 620);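 note: cells exposed to compound overnight then 4 h with Alamar Blue; 0% = vehicle DMSO and 100% = killing control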
SETUP CONDITIONS: at 10 µM, hits give high values
Among all 87,000 compounds or so, about 360 (0.41%) were called active. The sample as a whole holds a higher share of actives than the screen did.
Please go through the items and note down their cytotoxicity.
Just the number in %, nothing appended.

// cytotoxicity value for CCOc1ccc(NC(=O)CSc2nnc(-c3ccco3)n2C)cc1 : -3.7

// cytotoxicity value for CCCCCCCCCn1c2c(c(=N)c3c1CCC3)CCC2 : 51.6

// cytotoxicity value for COc1ccc(C)c(S(=O)(=O)Nc2ccc(OCC(=O)O)cc2)c1 : -3.4

// cytotoxicity value for CCOC(=O)c1c(C)oc2cc3c(C(=O)OCC)c(C)oc3cc12 : -0.1

// cytotoxicity value for O=C1C2ON(c3ccc(Br)cc3)C(c3cccnc3)C2C(=O)N1C1CCCCC1 (stereo unspecified) : 1.2

// cytotoxicity value for Cc1ccc(NC(=O)c2oc3c(c2C)C(=O)CC(C)(C)C3)cc1 : -0.8

// cytotoxicity value for COc1ccc(NS(=O)(=O)c2cc(OC)ccc2NC(=O)c2cc(C)oc2C)cc1 : 54

// cytotoxicity value for CCCCCCn1c2c(c(=N)c3c1CCC3)CCC2 : 12.4

// cytotoxicity value for COc1ccc(NS(=O)(=O)c2cc(C(=O)O)ccc2C)cc1 : -2.1

// cytotoxicity value for CCOC(=O)c1c(C)oc2c(F)c(F)c(F)c(F)c2c1=O : 96.5

// cytotoxicity value for COc1ccc(NS(=O)(=O)c2cc(C)ccc2C)cc1 : 2.8

---

ASSAY EXPLANATION: HT1080 cell viability loss – fluorescence readout (AID 620);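 note: cells exposed to compound overnight then 4 h with Alamar Blue; 0% = vehicle DMSO and 100% = killing control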
SETUP CONDITIONS: at 10 µM, hits give high values
Screen size: about 87,000 compounds; about 360 (0.41%) were called active. Only a selection was taken, and actives are over-represented in it overall.
PROPERTY NAME: cytotoxicity (%)
Just the number in %, nothing appended.

// cytotoxicity value for COC(=O)c1ccc(OC(=O)c2ccc(OC)c(OC)c2)c(OC)c1 : -8

// cytotoxicity value for COc1ccc(C2=Nn3c(nnc3-c3ccncc3)SC2)cc1 : -6.8

// cytotoxicity value for O=C(NCCN1CCN(c2ccccc2F)CC1)C1CC(=O)N(C2CCCC2)C1 (centres undefined) : 7

// cytotoxicity value for CCOc1ccccc1C(=O)N1CCOCC1 : -16.5

// cytotoxicity value for CC(=O)c1cccc(OCC(=O)c2cc(C)n(-c3cc(C)on3)c2C)c1 : 63.5

// cytotoxicity value for CC(NS(=O)(=O)c1ccc(OCC(=O)N2CCOCC2)cc1)c1ccccc1 (centres undefined) : 0.3

// cytotoxicity value for COc1ccc(C2=Nn3c(nnc3-c3ccc(OC)cc3)SC2)cc1 : 62.4

// cytotoxicity value for Cc1ccc2cc(-c3noc(C4CCCCC4)n3)c(=O)[nH]c2c1 : -0.9

// cytotoxicity value for CC(=O)NC1=NN(C(C)=O)C(C)(c2cccs2)S1 (centres undefined) : 65.3

// cytotoxicity value for Clc1ccc(C2=Nn3c(nnc3-c3n[nH]c4c3CCC4)SC2)cc1 : 6.1

// cytotoxicity value for COc1ccc(-c2nnc3n2N=C(C)CS3)cc1 : -10.3

// cytotoxicity value for CC(=O)NC1=NN(C(C)=O)C2(CCCCC2)S1 : 0.7

// cytotoxicity value for COc1ccccc1C(=O)N1CCN(c2cccc(Cl)c2)CC1 : 53

// cytotoxicity value for Cn1cnnc1SCC(=O)Nc1ccccc1 : 5.5

// cytotoxicity value for Cc1ccc(C(=O)N2CCN(c3cccc(Cl)c3)CC2)cc1C : -5.4

// cytotoxicity value for Cc1cc(C(=O)COc2cccc(-n3cnnn3)c2)c(C)n1-c1ccccc1 : 27

// cytotoxicity value for CCCCOc1ccc(CSc2nncn2N)cc1 : 0.8

// cytotoxicity value for CN=C1SC(CC(=O)Nc2sc3c(c2C#N)CCCC3)C(=O)N1C (centres undefined) : 1.2

// cytotoxicity value for CCOc1ccccc1C(=O)N1CCN(c2cccc(Cl)c2)CC1 : 50.8

// cytotoxicity value for COc1cccc(-n2c(SC)nnc2-c2c[nH]c3ccccc23)c1 : 6.9

// cytotoxicity value for O=C(c1ccccc1F)N1CCN(c2cccc(C(F)(F)F)c2)CC1 : -6.8

// cytotoxicity value for Cc1ccc(C(C(=O)NCc2ccccc2)N(C(=O)c2csnn2)c2cccc3ccccc23)o1 (centres undefined) : -5.1

// cytotoxicity value for CC(=O)O[C@@]12CO[C@@H]1C[C@H](O)[C@@]1(C)C(=O)[C@H](O)C3=C(C)[C@@H](OC(=O)[C@H](O)[C@@H](NC(=O)OC(C)(C)C)c4ccccc4)C[C@](O)([C@@H](OC(=O)c4ccccc4)[C@H]21)C3(C)C : 53.7

// cytotoxicity value for CC(=O)N1C(=O)C2(C(C#N)=C(N)Oc3n[nH]c(-c4ccccn4)c32)c2ccccc21 (centres undefined) : 6.9

// cytotoxicity value for COc1ccc(OCc2nc3ccccc3[nH]2)cc1 : 5.1

// cytotoxicity value for CC1(C)CC(=O)C=C(NCCN2CCN(C(=O)Nc3ccc(Cl)cc3)CC2)C1 : -6.1

// cytotoxicity value for COC(=O)C1=C(C)N(CCc2ccccc2)C(=O)C1(NS(=O)(=O)c1ccc(NC(C)=O)cc1)C(F)(F)F (centres undefined) : -19.4

// cytotoxicity value for CCCC1=Nc2cc(C(=O)NCCCOCC)ccc2Sc2ccccc21 : 63.8

// cytotoxicity value for CCOCCCNC(=O)c1ccc(OC)cc1 : -2.5

// cytotoxicity value for O=S(=O)(c1ccccc1)N1CCN(S(=O)(=O)c2ccccc2)C1 : -4.1

// cytotoxicity value for CCCC1=Nc2cc(C(=O)NCCCOC(C)C)ccc2Sc2ccccc21 : 6.2

// cytotoxicity value for COC(=O)c1ccc(OC(=O)c2ccc(OCc3c(C)noc3C)c(OC)c2)cc1 : -2

// cytotoxicity value for O=C(NCc1ccccn1)C1CCCN(Cc2cnn(-c3ccccc3)c2-n2cccc2)C1 (centres undefined) : -8.2

// cytotoxicity value for CCCC1(C)SC(NC(C)=O)=NN1C(C)=O (centres undefined) : -1.8

// cytotoxicity value for COc1ccc(C(=O)N2CCN(c3cccc(Cl)c3)CC2)cc1 : -4.7

// cytotoxicity value for CCOc1ccc(NC2=NC(C(=O)NCc3ccccc3)CC(=O)N2)cc1 (centres undefined) : 7.4

// cytotoxicity value for CCC1=Nc2cc(C(=O)NCCCOC(C)C)ccc2Sc2ccccc21 : 39.6

// cytotoxicity value for COC(=O)c1ccc2c(c1)C(C)(C)C(/C=C/c1ccc(OC)c(OC)c1OC)=[N+]2C : 64.8

// cytotoxicity value for COCCCNC(=O)c1cccc(C(=O)NCCCOC)c1 : 0.6

// cytotoxicity value for COc1ccc(-c2nnc3n2N=C(c2ccccc2)CS3)cc1OC : -10.6

// cytotoxicity value for COc1ccccc1CC(=O)N1CCN(c2cccc(C(F)(F)F)c2)CC1 : -8.5

// cytotoxicity value for CCOC(=O)CNc1c(-c2ccc(O)cc2)nc2ccc(Cl)cn12 : 36.6

// cytotoxicity value for Cc1cc(-n2c(C)cc(C(=O)COc3ccc4ccc(=O)oc4c3)c2C)no1 : 7.7

// cytotoxicity value for COC(=O)c1ccc(NC(=O)CSc2nncn2C)cc1 : 3.9
